Tested on: Escherichia coli
Test: Bactericidal activity against Escherichia coli 078 incubated for 4 hrs followed by culture spread on agar plates and cultured overnight
Assay type: functional
Settings: Escherichia coli, 078, 4 h; read-out: MBC>99.9
Consider the following substances and their measured MBC readings.
The answer is to be given in µM; state only the numeric part.

For orientation, consider the following solved cases.
H-IRPIIRPIIRPIIRPI-NH2 : 32
H-IRPIIRPIIRPIIRPIIRPI-NH2 : 16
H-LRPLLRPLLRPLLRPLLRPLLRPLLRPLLRPL-NH2 : 2
H-IRPIIRPIIRPIIRPIIRPIIRPIIRPI-NH2 : 1
H-IKPIIKPIIKPIIKPIIKPIIKPIIKPI-NH2 : 16

// MBC value for H-LRPLLRPLLRPLLRPL-NH2 : 16

// MBC value for H-LKPLLKPLLKPLLKPLLKPLLKPL-NH2 : 2

// MBC value for H-LKPLLKPLLKPLLKPLLKPL-NH2 : 8

---

System: Erythrocyte
Assay: Hemolytic activity against human RBC after 1 hr
Format: ADME, cell-based
REPORTED ENDPOINT: HC10

H-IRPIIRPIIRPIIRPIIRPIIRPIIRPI-NH2 : > 128 µM
H-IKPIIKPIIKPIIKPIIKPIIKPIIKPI-NH2 : > 128 µM
H-LRPLLRPLLRPLLRPLLRPLLRPLLRPL-NH2 : 64 µM

Let us examine a further case.
// HC10 value for H-LKPLLKPLLKPLLKPLLKPLLKPLLKPL-NH2 : > 128 µM

---

System: Escherichia coli
Test: Bactericidal activity against Escherichia coli K88 incubated for 4 hrs followed by culture spread on agar plates and cultured overnight
Format: functional
Details: K88, 4 h, read-out: MBC>99.9
Consider the following substances and their measured MBC readings.
Just the number plus its unit, please.

H-IRPIIRPIIRPIIRPIIRPIIRPI-NH2 : 1 µM

Record H-LRPLLRPLLRPLLRPLLRPL-NH2 ; system Escherichia coli; MBC = 4 µM

Record H-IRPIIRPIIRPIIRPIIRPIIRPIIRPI-NH2 ; system Escherichia coli; MBC = 1 µM

Record H-IRPIIRPIIRPIIRPIIRPIIRPIIRPIIRPI-NH2 ; system Escherichia coli; MBC = 2 µM

Record H-IRPIIRPIIRPIIRPI-NH2 ; system Escherichia coli; MBC = 8 µM

Record H-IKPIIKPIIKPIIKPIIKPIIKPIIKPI-NH2 ; system Escherichia coli; MBC = 2 µM

Record H-LRPLLRPLLRPLLRPLLRPLLRPLLRPLLRPL-NH2 ; system Escherichia coli; MBC = 1 µM

---

Consider the following substances and their measured MBC readings.
Tested on: Escherichia coli
Assay: Bactericidal activity against Escherichia coli 078 incubated for 4 hrs followed by culture spread on agar plates and cultured overnight
Assay type: functional
Conditions: Escherichia coli, 078, 4 h; read-out: MBC>99.9
The answer is to be given in µM; state only the numeric part.

H-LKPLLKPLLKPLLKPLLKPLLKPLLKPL-NH2 : 2
H-IRPIIRPIIRPIIRPIIRPIIRPI-NH2 : 2
H-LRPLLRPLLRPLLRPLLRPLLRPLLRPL-NH2 : 1
H-LRPLLRPLLRPLLRPLLRPL-NH2 : 4
H-VRPVVRPVVRPVVRPVVRPVVRPVVRPV-NH2 : 16
H-LRPLLRPLLRPLLRPLLRPLLRPL-NH2 : 2
H-LKPLLKPLLKPLLKPL-NH2 : 64
H-IRPIIRPIIRPIIRPIIRPIIRPIIRPIIRPI-NH2 : 2

Record H-LKPLLKPLLKPLLKPLLKPLLKPLLKPLLKPL-NH2 ; system Escherichia coli; MBC = 2

Values from ChEMBL document CHEMBL4316596
